Biological target: T1, human matriptase-2 ECD protein his tag (human, UniProt Q8IU80 78-811)
T1 sequence: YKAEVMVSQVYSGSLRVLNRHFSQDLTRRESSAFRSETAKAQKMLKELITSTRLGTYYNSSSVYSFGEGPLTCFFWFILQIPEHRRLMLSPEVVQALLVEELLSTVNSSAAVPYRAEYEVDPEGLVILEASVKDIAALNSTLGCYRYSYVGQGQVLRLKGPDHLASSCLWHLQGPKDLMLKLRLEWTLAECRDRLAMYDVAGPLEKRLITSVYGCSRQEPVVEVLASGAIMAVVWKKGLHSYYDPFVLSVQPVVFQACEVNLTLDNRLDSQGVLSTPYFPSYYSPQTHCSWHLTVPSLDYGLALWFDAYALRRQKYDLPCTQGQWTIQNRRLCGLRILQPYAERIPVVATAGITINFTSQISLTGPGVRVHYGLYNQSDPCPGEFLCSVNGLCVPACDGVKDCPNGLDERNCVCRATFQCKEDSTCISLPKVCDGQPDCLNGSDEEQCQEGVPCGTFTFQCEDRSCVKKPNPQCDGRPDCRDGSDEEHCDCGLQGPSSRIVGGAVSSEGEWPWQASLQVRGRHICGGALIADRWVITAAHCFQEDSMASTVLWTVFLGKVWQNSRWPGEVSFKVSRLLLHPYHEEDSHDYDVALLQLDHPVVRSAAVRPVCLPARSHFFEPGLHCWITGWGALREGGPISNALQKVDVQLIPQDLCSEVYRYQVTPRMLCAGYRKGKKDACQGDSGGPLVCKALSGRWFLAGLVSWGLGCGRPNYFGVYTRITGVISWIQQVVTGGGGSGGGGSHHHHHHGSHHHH
Test: cell-based or functional assay
experimental-endpoint: Inhibition enzymatic activity human MTP2 protein (IC50)

{"columns": ["binder", "experimental-result"],
 "data": [
  ["NORI-019 (antibody, human IgG4 S228P, lambda, V domains shown) VH: QVQLVESGGGVVQPGRSLRLSCAASGFTFSNFDMHWVRQAPGKGLEWVAIISYDGSDKYYEDSVKGRFTISRDNSKNTLYLQMNSLRAEDTAIYYCAKDGYGSSLFDHWGQGTLVTVSS VL: QSVLTQPPSVSEAPRQRVTISCSGSSSNIGNNAVNWFQQLPGEVPKLLIYYDDLLPSGVSDRFSGSKSGTSASLAISGLQSEDEADYYCAVWDDSLNGVLFGGGTKLTVLG", "1.54 nM"],
  ["NORI-005 (antibody, human IgG4 S228P, kappa, V domains shown) VH: EVHLVESGGGLIKPGRSLRLSCTGSGFTFGDFGLSWFRQAPGKGLEWISFIRSKPYGGTTDYAASVKGRFTISRDDSKSVAYLQMNSLKTEDSAVYYCARNEILTGYYIFDYWGQGILVTVSS VL: DIQMTQSPSSLSASLGDRLTITCQASQDISNYLSWYQLQPGKAPKLLIFDASILETGVPSRFSGSGSGTDFSFTVSSLQPEDIATYYCQQYDNLPLTFGGGTKVDLKR", "5.95 nM"],
  ["NORI-017 (antibody, human IgG4 S228P, lambda, V domains shown) VH: QVHLVESGGAVVQPGRSLRLSCAASGFTFSNFDMHWVRQTPGKGLEWVTIIRYDETNIYYTESVKGRFTTSRDNSKNTLYLQMNSLRVEDTAVYYCARGWTGSYVFDYWGQGALVTVSS VL: QSVLTQPPSVSEAPRQRVTISCSGGSSNIGNNAVNWYQQVPGKAPKLLIHYDDLLPSGVSDRFSGSKSGTSASLAISGLQSEDEADYYCAAWDDSLNGVVFGGGTKLTVLG", "1.51 nM"],
  ["NORI-016 (antibody, human IgG4 S228P, lambda, V domains shown) VH: EVQLVESGGGLIQAGRSLRLSCAASGFTFDEHVMYWVRQIPGKGLEWISSITWKSDIIAYADSVKGRFTISRDNAKNALYLQMNSLRAEDTALYYCAREKDGDFYYYYFAMDVWGQGTTVTVSS VL: QSALTQPPSASGSPGQSVTISCTGTSSNVGYYNYVSWYQQHPGKAPKLMIYEVNKRPSGVPDRFSGSKSANTASLTVSGLQADDEADYYCSSYAGSNKVVFGGGTKLTVLG", "10.4 nM"],
  ["NORI-031 (antibody, human IgG4 S228P, lambda, V domains shown) VH: QLQLQESGPGLVKPSETLSLTCTVSGGAISSSNYFWGWIRQSPGKGLEWIGSMYYTGITYYNPSLKSRVTISVDTSKNQLSLKVNSVTAADTAVYYCARQDGFRTGWFDPWGQGTLVTVSS VL: SYELTQPPSVSVSPGQTATLTCSGDKLGDNYVCWFQQKPGQSPLLVMYQDTKRPSGIPERFSGSNSGNTATLTISGTQALDEADYYCQAWDSRTVVFGGGTKLTVLG", "10.3 nM"],
  ["NORI-020 (antibody, human IgG4 S228P, lambda, V domains shown) VH: QLQLQESGPGLVKPAETLSLMCTVSGDSISSSHYFWGWIRQPPGKGLEWIGSMYYSGSTYYNPSLKSRVTISVDTSNNQFSLKLRSVTAADTAVYYCVRHNNWGLDNYFDYWGQGTLVTVSS VL: SYELTQPPSVSVSPGQTARITCSADALPDQYAYWYQQKPGQAPLLVIYKDSERPSGIPERFSGSSSGTIVTLTIRGVQAEDEADYYCQSADSSGSYAVFGGGTKLTVLG", "1.72 nM"],
  ["NORI-032 (antibody, human IgG4 S228P, lambda, V domains shown) VH: QVQLVQSGAEVRKPGAAVKVSCKASGYTFSSFGITWIRQAPGQGLEWMGWISAYNGISNSAQKVQGRVTMTTDTSTSTAYMELRSLRSDDSAVYYCARDRANRDALDVWGQGTKVTVSL VL: SHELTQPPSMSVSPGQTASITCSGDELGDRYACWYQQKPGQSPVLVIYQDTKRPSGIPERFSGSISGNTATLTISGTQAMDEADYYCQAWDSSTVVFGGGTKLTVLG", "1.6 nM"]
]}
